# METHOD_NOTES: Microsomal stability in mouse assessed as half life
# Assay type: ADME
# CONDITION_DESCRIPTION: microsomes
MEASUREMENT_NAME: half-life (h)

[[record]]
compound = "Cc1c(-c2ccc3c(c2)OCCO3)cccc1C(F)(F)Oc1cc(OCc2ccnc(C#N)c2)c(CN[C@@H]2C(O)O[C@H](CO)[C@@H](O)[C@@H]2O)cc1Cl (some centres not stated)"
measurement_name = "half-life"
unit = "h"
test_result = 1.25

[[record]]
compound = "Cc1cc(OCc2cccc(-c3ccc4c(c3)OCCO4)c2C)cc(OCc2cccc(C#N)c2)c1CN[C@H](CO)C(=O)O"
measurement_name = "half-life"
unit = "h"
test_result = 1.1


---

The entries below come with measured pIC50 values attached.
# MEASUREMENT_TARGET: Programmed cell death protein 1/Programmed cell death 1 ligand 1 (Homo sapiens, UniProt Q15116+Q9NZQ7)
# Sequence (Q15116 whole entry): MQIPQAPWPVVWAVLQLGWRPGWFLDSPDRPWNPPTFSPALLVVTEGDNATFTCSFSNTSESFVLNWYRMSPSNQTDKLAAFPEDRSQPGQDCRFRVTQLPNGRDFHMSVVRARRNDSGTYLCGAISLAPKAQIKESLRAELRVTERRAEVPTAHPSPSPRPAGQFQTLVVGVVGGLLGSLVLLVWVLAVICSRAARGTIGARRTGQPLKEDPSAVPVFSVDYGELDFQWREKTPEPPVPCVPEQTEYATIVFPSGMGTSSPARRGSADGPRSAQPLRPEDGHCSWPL
# Sequence (Q9NZQ7 whole entry): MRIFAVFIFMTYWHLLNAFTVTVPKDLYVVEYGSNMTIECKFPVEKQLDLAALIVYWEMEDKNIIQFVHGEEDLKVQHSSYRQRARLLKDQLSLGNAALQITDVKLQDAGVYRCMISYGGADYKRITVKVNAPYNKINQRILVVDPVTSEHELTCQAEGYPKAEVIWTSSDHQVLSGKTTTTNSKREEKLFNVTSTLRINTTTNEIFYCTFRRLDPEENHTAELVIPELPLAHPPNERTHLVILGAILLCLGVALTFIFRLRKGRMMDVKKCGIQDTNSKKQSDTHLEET
# METHOD_NOTES: Inhibition of PD-1/PD-L1 interaction (unknown origin) by HTRF assay
# Type: protein-complex assay
The scale used: pIC50 is minus the common logarithm of the concentration in molar units.

[[record]]
compound = "Cc1cc(OC(F)(F)c2cccc(-c3ccc4c(c3)OCCO4)c2C)cc(OCc2cccc(C#N)c2)c1CN[C@@H](C(=O)O)[C@H](C)O"
test_result = 7.26

[[record]]
compound = "Cc1c(-c2ccc3c(c2)OCCO3)cccc1C(F)(F)Oc1cc(OCc2ccnc(C#N)c2)c(CN2CCCC[C@H]2C(=O)N[C@@H]2C(O)O[C@H](CO)[C@@H](O)[C@@H]2O)cc1Cl (some centres not stated)"
test_result = 7.54

[[record]]
compound = "Cc1c(-c2ccc3c(c2)OCCO3)cccc1C(F)(F)Oc1cc(OCc2cncc(C#N)c2)c(CNC(CO)(CO)CO)cc1Cl"
test_result = 8.25

[[record]]
compound = "Cc1cc(OC(F)(F)c2cccc(-c3ccc4c(c3)OCCO4)c2C)cc(OCc2cccc(C#N)c2)c1CNC(CO)(CO)CO"
test_result = 7.52


Please turn your attention to the following entry.
I have this compound here, Cc1c(-c2ccc3c(c2)OCCO3)cccc1C(F)(F)Oc1cc(OCc2ccnc(C#N)c2)c(CNC(CO)(CO)CO)cc1Cl , and I need its recorded pIC50.
8.20

---

# MEASUREMENT_TARGET: Programmed cell death protein 1/Programmed cell death 1 ligand 1 (Homo sapiens, UniProt Q15116+Q9NZQ7)
# METHOD_NOTES: Inhibition of PD-1/PD-L1 interaction (unknown origin) by HTRF assay
# Assay type: protein-complex assay
The entries below come with measured IC50 values attached.
State just the number; it will be interpreted in nM.

[[record]]
compound = "Cc1c(-c2ccc3c(c2)OCCO3)cccc1C(F)(F)Oc1cc(OCc2ccnc(C#N)c2)c(CN2CCCC[C@H]2C(=O)O)cc1Cl"
measurement_name = "IC50"
unit = "nM"
test_result = 2.99

[[record]]
compound = "CC(=O)OCOC(=O)[C@@H]1CCCCN1Cc1cc(Cl)c(OC(F)(F)c2cccc(-c3ccc4c(c3)OCCO4)c2C)cc1OCc1ccnc(C#N)c1"
measurement_name = "IC50"
unit = "nM"
test_result = 28.8

[[record]]
compound = "Cc1c(-c2ccc3c(c2)OCCO3)cccc1C(F)(F)Oc1cc(OCc2ccnc(C#N)c2)c(CN[C@@H](CO)[C@@H](O)[C@@H](O)[C@H](O)CO)cc1Cl"
measurement_name = "IC50"
unit = "nM"
test_result = 7.1

[[record]]
compound = "Cc1c(-c2ccc3c(c2)OCCO3)cccc1C(F)(F)Oc1cc(OCc2cccc3nonc23)c(CNC(CO)(CO)CO)cc1Cl"
measurement_name = "IC50"
unit = "nM"
test_result = 7.05


Please turn your attention to the following entry.
I have this compound here, Cc1c(-c2ccc3c(c2)OCCO3)cccc1C(F)(F)Oc1cc(OCc2ccnc(C#N)c2)c(CN[C@@H]2C(O)O[C@H](CO)[C@@H](O)[C@@H]2O)cc1Cl (stereo partly specified) , and I need its recorded IC50.
10.2

---

# MEASUREMENT_TARGET: Programmed cell death protein 1/Programmed cell death 1 ligand 1 (Homo sapiens, UniProt Q15116+Q9NZQ7)
# METHOD_NOTES: Inhibition of PD-1/PD-L1 interaction (unknown origin) by HTRF assay
# Assay type: protein-complex assay
MEASUREMENT_NAME: IC50 (nM)
State just the number; it will be interpreted in nM.

Worked cases, answers included:
[[record]]
smiles_string = "Cc1cc(OC(F)(F)c2cccc(-c3ccc4c(c3)OCCO4)c2C)cc(OCc2cccc(C#N)c2)c1CNC(C)(CO)CO"
test_result = 16.3

[[record]]
smiles_string = "Cc1cc(OCc2cccc(-c3ccc4c(c3)OCCO4)c2C)cc(OCc2cccc(C#N)c2)c1CN[C@H](CO)C(=O)O"
test_result = 48.2

[[record]]
smiles_string = "Cc1c(-c2ccc3c(c2)OCCO3)cccc1C(F)(F)Oc1cc(OCc2cccc(C#N)c2)c(CNC(C)(CO)CO)cc1Cl"
test_result = 5.93


Please turn your attention to the following entry.
I have this compound here, Cc1cc(OC(F)(F)c2cccc(-c3ccc4c(c3)OCCO4)c2C)cc(OCc2cccc(C#N)c2)c1CN[C@H](CO)C(=O)O , and I need its recorded IC50.
31.9

---

# METHOD_NOTES: Microsomal stability in mouse assessed as clearance
# Type: ADME
# CONDITION_DESCRIPTION: microsomes
MEASUREMENT_NAME: microsomal CLint (µL/min/mg)

[[record]]
compound = "Cc1cc(OCc2cccc(-c3ccc4c(c3)OCCO4)c2C)cc(OCc2cccc(C#N)c2)c1CN[C@H](CO)C(=O)O"
measurement_name = "microsomal CLint"
test_result = 52.5

[[record]]
compound = "Cc1c(-c2ccc3c(c2)OCCO3)cccc1C(F)(F)Oc1cc(OCc2ccnc(C#N)c2)c(CN[C@@H]2C(O)O[C@H](CO)[C@@H](O)[C@@H]2O)cc1Cl (some centres not stated)"
measurement_name = "microsomal CLint"
test_result = 46.1


---

# METHOD_NOTES: Observed clearance in rat at 1 mg/kg, iv
# Assay type: ADME, organism-based
# CONDITION_DESCRIPTION: in vivo
MEASUREMENT_NAME: clearance (mL/min/kg)

[[record]]
smiles_string = "Cc1cc(OCc2cccc(-c3ccc4c(c3)OCCO4)c2C)cc(OCc2cccc(C#N)c2)c1CN[C@H](CO)C(=O)O"
test_result = 124

[[record]]
smiles_string = "Cc1c(-c2ccc3c(c2)OCCO3)cccc1C(F)(F)Oc1cc(OCc2ccnc(C#N)c2)c(CN[C@@H](CO)[C@@H](O)[C@@H](O)[C@H](O)CO)cc1Cl"
test_result = 131

[[record]]
smiles_string = "Cc1c(-c2ccc3c(c2)OCCO3)cccc1C(F)(F)Oc1cc(OCc2ccnc(C#N)c2)c(CN2CCCC[C@H]2C(=O)O)cc1Cl"
test_result = 143

